# TARGET_UNDER_TEST: T1, soluble ectodomain of the HCMV Pentamer (strain Towne) (human cytomegalovirus (strain Towne), UniProt P17176 24-718)
# T1 chain 1: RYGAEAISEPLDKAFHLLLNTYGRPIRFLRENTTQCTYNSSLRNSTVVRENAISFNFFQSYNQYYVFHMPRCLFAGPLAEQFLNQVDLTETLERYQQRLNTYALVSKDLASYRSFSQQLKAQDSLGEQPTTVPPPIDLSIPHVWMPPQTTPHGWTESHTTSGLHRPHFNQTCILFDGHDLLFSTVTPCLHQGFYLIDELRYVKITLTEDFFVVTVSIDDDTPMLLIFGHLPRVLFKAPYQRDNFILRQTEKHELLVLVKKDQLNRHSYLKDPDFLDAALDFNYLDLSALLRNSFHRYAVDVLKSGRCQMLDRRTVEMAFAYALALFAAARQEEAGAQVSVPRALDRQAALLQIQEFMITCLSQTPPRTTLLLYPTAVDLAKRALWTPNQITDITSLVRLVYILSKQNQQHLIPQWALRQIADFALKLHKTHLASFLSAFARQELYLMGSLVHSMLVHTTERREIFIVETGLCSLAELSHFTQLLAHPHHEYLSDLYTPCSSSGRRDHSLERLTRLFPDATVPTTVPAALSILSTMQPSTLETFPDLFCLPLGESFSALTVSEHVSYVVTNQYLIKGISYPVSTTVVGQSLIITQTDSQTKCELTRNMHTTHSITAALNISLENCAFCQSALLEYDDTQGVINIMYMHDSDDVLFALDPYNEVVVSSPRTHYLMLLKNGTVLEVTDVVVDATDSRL
# T1 chain 2: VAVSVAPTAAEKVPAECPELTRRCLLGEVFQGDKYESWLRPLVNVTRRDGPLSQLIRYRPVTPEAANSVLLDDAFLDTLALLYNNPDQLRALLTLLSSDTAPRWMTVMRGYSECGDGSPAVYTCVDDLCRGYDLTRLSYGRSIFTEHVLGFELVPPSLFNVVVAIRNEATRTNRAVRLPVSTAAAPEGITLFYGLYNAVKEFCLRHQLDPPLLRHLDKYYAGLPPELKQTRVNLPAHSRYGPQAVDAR
# T1 chain 3: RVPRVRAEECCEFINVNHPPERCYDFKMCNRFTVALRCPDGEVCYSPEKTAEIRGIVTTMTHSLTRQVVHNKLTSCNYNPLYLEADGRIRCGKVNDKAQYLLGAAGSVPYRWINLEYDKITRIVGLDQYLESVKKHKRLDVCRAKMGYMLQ
# T1 chain 4: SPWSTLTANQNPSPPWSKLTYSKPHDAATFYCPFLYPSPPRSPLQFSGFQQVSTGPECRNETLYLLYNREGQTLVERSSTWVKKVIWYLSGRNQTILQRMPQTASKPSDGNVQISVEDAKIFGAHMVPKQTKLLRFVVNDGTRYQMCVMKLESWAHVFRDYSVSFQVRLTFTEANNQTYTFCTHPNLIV
# T1 chain 5: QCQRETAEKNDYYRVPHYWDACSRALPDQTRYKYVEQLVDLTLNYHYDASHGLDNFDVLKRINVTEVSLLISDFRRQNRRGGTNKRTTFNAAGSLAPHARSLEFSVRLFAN
# ASSAY_NAME: SPR
MEASURE_NAME: Kd (nM)
Please give a number only; it is taken to be in nM.

Some binders with known Kd results, for comparison:
>  <BINDER>
Fab 2-18 (Fab, V domains shown) VH: EVQLVQSGGGLVQPGGSLRVSCAASGFSFSDHDMDWVRQAPGKGFEWVGRSRNKDYSSTTEYAASVRGRFTISRHTSEDLLYLELNTVKTEDTAVYFCARGPHHSDRSGYYGGTFDIWGQGTMVTVSS VL: DIQMTQSPSSVSASVGDRVIITCRASQGISSWLAWYQQKPGRAPRLLIYDASTLESGVPSRFSGRGSGTEFTLTINSLQPEDFATYYCQQGNMFPLTFGGGTKVEIK

>  <Kd, nM>
0.0493

$$$$
>  <BINDER>
Fab 1-103 (Fab, V domains shown) VH: QLQLQESGPGLVKPSETLSLTCSVSGDAISGSNYYWGWIRQPPGKGLQWIGSIYHTGSTFYNPSFSSRVTLSVDTSKNQFSLKLISVNAADTAVYYCARRIRGYSGTYDWGQGTLVTVSS VL: DIQLTQSPSFLSASVGDRVTITCRASQDISSYVAWYQQKPGNAPKLLISSASTLPSGVPSRFSGSRSGTDFTLTISSLQPEDFATYYCQQLNNFGPGTTVDIK

>  <Kd, nM>
3.11

$$$$
>  <BINDER>
Fab 1-32 (Fab, V domains shown) VH: QVKLVESGGGVVQPGRSLRLSCAGSGFAFDNYAMHWVRQAPGKGLEWVAVISLEGRNKYYAGPAKGRFSISRDNSRNTVHLQMNSLRPEDTAVYFCARDMRYYYDSNGHYRNRYGMDVWGQGTTVIVSS VL: DIQMTQSPSSLSASVGDSVTITCQASQDINQFVSWYQQKPGKPPKLLIYDASNLESGVPSRFSGSGSGTHFTFTISSLQPDDIATYYCQQYENLFTFGPGTKVDIK

>  <Kd, nM>
2.82

$$$$

Next binder, Kd to be filled in.
Please list Kd recorded for the binder Fab 2-25 (Fab, V domains shown) VH: QVQLVESGAEVKKPGASVKVSCKASGYTFTNYAIHWVRQAPGQRLEWMGWINAGRGNTKYSQKFQGRVTITRDTSASTAYMELSSLRSEDAAVYFCARDESTGDYYYYMDVWGKGTTVTVSS VL: SYELTQPPSVSVSPGQTASITCSGDRLDDKYASWYQQKAGQSPVLVIYQDNKRPSGIPERFSGSNSGNTATLTISGTQAMDEADYYCQAWDSDTYVFGTGTKVTVL
1.08
